target-entity: human P2X3 receptor (Homo sapiens (Human), UniProt P56373)
Sequence (P56373 whole entry): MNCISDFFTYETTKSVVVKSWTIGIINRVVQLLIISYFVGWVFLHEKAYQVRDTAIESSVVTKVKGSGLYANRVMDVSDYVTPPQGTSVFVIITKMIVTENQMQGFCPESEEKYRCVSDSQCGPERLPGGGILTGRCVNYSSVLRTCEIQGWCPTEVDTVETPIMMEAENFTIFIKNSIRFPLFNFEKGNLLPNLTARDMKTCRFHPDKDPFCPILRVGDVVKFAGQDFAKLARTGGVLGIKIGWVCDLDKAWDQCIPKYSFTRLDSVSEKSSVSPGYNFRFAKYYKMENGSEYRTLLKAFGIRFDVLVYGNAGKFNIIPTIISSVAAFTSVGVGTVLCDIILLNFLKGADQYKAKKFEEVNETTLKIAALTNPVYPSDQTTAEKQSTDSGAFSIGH
assay-info: Evaluation of human P2X3 receptor inhibitory activity (Fluo-3 calcium fluorescence, FDSS 3000, ATP stimulation);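 also: stimulus was 50 nM ATP with fluorescence followed for 3 min, and the response per well was peak post-ATP fluorescence divided by the reading at measurement start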
Format: cell-based
particulars: human P2X3 receptor, Test Example 1
pIC50: −log10 of the molar value.
Decision: pIC50 compared against 8; not below it gives t, below it gives f.

Use the examples below as a reference point.
compound	assigned-category
CCn1c(=O)[nH]/c(=N\c2ccc(Oc3ccnc(NC(=O)NC)c3)cc2)n(Cc2ccc(Cl)cc2)c1=O [Compound I-2425]	t
CCn1c(=O)[nH]/c(=N\c2ccc(Oc3ncccc3C(=O)O)cc2)n(Cc2ccc(Cl)cc2)c1=O [Compound I-2366]	f
CCn1c(=O)[nH]/c(=N\c2ccc(Oc3ccnc(CNC)c3)cc2)n(Cc2ccc(Cl)cc2)c1=O [Compound I-2245]	f

We next turn to a different compound, shown below.
-- ask Threshold query (pIC50 >= 8) on CCc1oc2ccc(/N=c3\[nH]c(=O)n(CCC(=O)O)c(=O)n3Cc3ccc(C)cc3)cc2c1C [Compound I-1508]
-- reply f
